- target: Dopamine receptors; D2 & D4 (Homo sapiens) (UniProt P14416+P21917)
- protocol_notes: Selectivity ratio for binding affinity between D4 and D2 receptor
- Type: protein assay
Output schema: class label derived from Selectivity. Mapping: lower (below 10), middle (10 to below 80), upper (80 or more)

• COc1cc2ccccc2cc1C(=O)CCC1CCN(Cc2ccccc2)CC1 = middle
• COc1cc2ccccc2cc1OC(=O)CC1CCN(Cc2ccccc2)CC1 = upper
• COc1cc2ccccc2cc1C(=O)OCC1CCN(Cc2ccccc2)CC1 = upper
• COc1cc2ccccc2cc1COCC1CCN(Cc2ccccc2)CC1 = middle
• COc1cc2ccccc2cc1C(=O)OCC1CCN(Cc2ccccc2)C1 (stereo not given) = upper
• COc1cc2ccccc2cc1OCCC1CCN(Cc2ccccc2)CC1 = middle
• COc1cc2ccccc2cc1C(=O)NCC1CCN(Cc2ccccc2)CC1 = lower
• COc1cc2ccccc2cc1CC(=O)CC1CCN(Cc2ccccc2)CC1 = lower
